Where these numbers come from: PubChem BioAssay AID720519

Experiment: qHTS for Inhibitors of Cell Surface uPA Generation: Confirmatory Assay for Cherry-picked Compounds
Settings: cell surface uPA activity generation, qHTS confirmation; series mostly up to 115 µM
Inconclusive results are not listed. The source made the active and inactive calls. Calls follow the shape of the dose curve; as a rule, active = well fitted activation curve with a large enough effect; inconclusive = small, poorly fitted or top-dose-only effect; inactive = flat fitted curve, though single readings scatter.
Pick one and only one: yes = active, no = inactive

Illustrative cases are given below, each with its answer.
compound: Cc1nc2nc(C)c(NS(=O)(=O)c3ccc(Cl)cc3)c(=O)n2[nH]1
labelClass: no
//
compound: CCOc1ccc(C(=O)NCCO)cc1
labelClass: no
//
compound: COc1ccc(CN2CCN(Cc3ccc(C(F)(F)F)cc3)CC2)cc1
labelClass: no
//
compound: Cc1ccc2sc(NNC(=O)c3ccc4c(c3)OCCO4)nc2c1C
labelClass: no
//
compound: Cc1cc(C)cc(NC(=O)C(OC(=O)c2ccc(O)cc2)c2ccccc2)c1 (centres undefined)
labelClass: no
//
compound: CCCN1CCN(CC(=O)Nc2nncs2)CC1
labelClass: no
//
compound: COc1cc(C(=O)Nc2nnc(C)s2)cc(OC)c1OC
labelClass: no
//
compound: CC1CC(C)(C)Nc2ccc(N=O)cc21 (centres undefined)
labelClass: no
//
compound: Cc1cc(C)n2nc(CNS(=O)(=O)c3ccc(F)c(C)c3)nc2n1
labelClass: no
//
compound: CCOC(=O)C1=C(C)NC(C)=C(C(=O)OCC)C1C(=O)OCC(=O)NCCc1ccccc1
labelClass: yes

## Input Write down the call the test reported for this compound. Item: `COc1cc(/C=C(/C#N)C(=O)Nc2ccccc2)ccc1OCc1ccc(C(=O)O)cc1`
## Output no

## Input Write down the call the test reported for this compound. Item: `Cc1ccc(C)c(S(=O)(=O)Nc2ccccc2C(=O)Nc2cc(C)on2)c1`
## Output no

## Input Write down the call the test reported for this compound. Item: `COc1ccc(-n2ncc3c(=O)n(CC(=O)NC(C)C)cnc32)cc1`
## Output no

* * *

Test: qHTS for Inhibitors of Cell Surface uPA Generation: Confirmatory Assay for Cherry-picked Compounds
Details: cell surface uPA activity generation, qHTS confirmation; series mostly up to 115 µM
Results filed as inconclusive are left out. The source made the active and inactive calls. Calls come from the whole dose curve; as a rule, active = well fitted activation curve with a large enough effect; inconclusive = small, poorly fitted or top-dose-only effect; inactive = flat fitted curve, though single readings scatter.
Pick one and only one: active, inactive

compound: O=C(O)c1ccccc1/C=N/NC(=S)NC1CCCCC1
labelClass: inactive
//
compound: Cc1ccc(S(=O)(=O)NNC(=O)c2ccc(F)cc2)cc1
labelClass: inactive
//
compound: COc1cc(CN2CCN(S(=O)(=O)c3ccccc3)CC2)cc(OC)c1OC
labelClass: inactive
//
compound: COCCn1nnnc1C(C(C)C)N1CCCC(C)C1 (stereo not given)
labelClass: inactive
//
compound: CS(=O)(=O)c1ccc(Cl)c(NC(=O)COC(=O)CNC(=O)c2cccs2)c1
labelClass: inactive
//
compound: CC(C)N1CCc2c(sc(NC(=O)Cc3ccccc3)c2C(N)=O)C1
labelClass: inactive

## Input Write down the call the test reported for this compound. Item: Cc1ccccc1-c1nnc(SCC(=O)NCC2CCCO2)o1 (stereo not given)
## Output inactive

## Input Write down the call the test reported for this compound. Item: CCc1ccc(OCC(=O)N(Cc2cccs2)C2CCS(=O)(=O)C2)cc1 (stereo not given)
## Output inactive

## Input Write down the call the test reported for this compound. Item: `O=C(NCc1ccco1)/C(=C\c1cccs1)NC(=O)c1ccccc1`
## Output inactive

## Input Write down the call the test reported for this compound. Item: `Cc1cc(=O)[nH]c2c(C)cc(S(=O)(=O)Nc3ccc(O)cc3)cc12`
## Output inactive

## Input Write down the call the test reported for this compound. Item: `O=C(CN1CCCC1)Nc1cccc(Cl)c1Cl`
## Output inactive

## Input Write down the call the test reported for this compound. Item: COc1cc(C2NC(=O)NC(C)=C2C(=O)OCC2CCCCC2)ccc1O (stereo not given)
## Output inactive

## Input Write down the call the test reported for this compound. Item: C[C@@]12C(=O)N(CC3CCCO3)CC(=O)N1[C@H]1c3cc(Cl)ccc3OC[C@@H]1[C@@H]2c1ccccc1 (stereo not given in full)
## Output inactive

## Input Write down the call the test reported for this compound. Item: `O=C(COC(=O)c1cccc([N+](=O)[O-])c1)NNC(=O)c1cccs1`
## Output inactive

## Input Write down the call the test reported for this compound. Item: `C=CCn1c(C)cc(C(=O)COC(=O)/C=C/c2cccc(OC)c2)c1C`
## Output inactive

## Input Write down the call the test reported for this compound. Item: Cc1ccc(S(=O)(=O)N2CCC(C(=O)OC(C)C(=O)NC3CCCCC3C)CC2)cc1 (stereo not given)
## Output inactive

## Input Write down the call the test reported for this compound. Item: `CCOC(=O)[C@H]1[C@H]2COc3ccc(Br)cc3[C@@H]2N2C(=O)c3c(C)cc(C)cc3NC(=O)[C@@]12C`
## Output inactive

## Input Write down the call the test reported for this compound. Item: `Cc1cc(SCc2ccc(Cl)cc2)nc(=O)[nH]1`
## Output inactive

## Input Write down the call the test reported for this compound. Item: `CCn1c(=O)cc(C(=O)OC)sc1=Nc1ccc(F)c(F)c1`
## Output inactive

## Input Write down the call the test reported for this compound. Item: `CS(=O)(=O)N1CCC(C(=O)Nc2ccccc2)CC1`
## Output inactive
